# credit: PubChem BioAssay (NCI)

system: HCT-116 colon; test: NCI tumour cell line growth inhibition, 48 h; in the data active = GI50 below about 0.43 µM; inactive = the rest
Could you please pick one outcome from this set? active, inactive

Answered examples (5):
COc1cc2c3c(n(C)c(=O)c2cc1OC)-c1ccc(C#N)cc1C3=O    inactive
Cn1cc(C2=C(c3cn(CCCCCSC(=N)N)c4ccccc34)C(=O)NC2=O)c2ccccc21    inactive
O=C1Cc2cc(C(=O)NC3C[C@H]4CC[C@@H](C3)N4S(=O)(=O)CC3CCN(CCCC(F)(F)F)CC3)c(Cl)cc2N1 (stereo partly specified)    inactive
CCCCCCCCCCCCCC[C@@H](O)[C@H]1CC[C@H]([C@H]2CC[C@H]([C@H](O)CCCCCC[C@@H](O)CC3=C[C@H](C)OC3=O)O2)O1    inactive
O=C(CN1C(=O)S/C(=C\C(Cl)=C\c2ccccc2)C1=O)NC1C=CS(=O)(=O)C1 (stereo unspecified)    active

Let us examine a further case.
How did this test come out for N#CC1c2ccccc2C=CN1C(=O)N(c1ccccc1)c1ccccc1 (stereo unspecified) ? inactive
